Test system: Sam68 (KHDRBS1)
Experiment: Sam68 small-molecule binders, primary screen, biochemical, small-molecule microarray, 635 nm fluorescence (AID 1125);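 also: score merges 667 nm channel intensity with signal to noise over triplicate slides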
Conditions: small-molecule microarray binding, higher = more signal
Answer each item with its documented composite z-score.
One number for each entry.

Some solved entries appear below for comparison.
[N-]=[N+]=Nc1ccccc1[C@H]1OC(c2ccc(OCCCO)cc2)=N[C@@]1(CCS(=O)(=O)c1ccccc1)C(=O)NCC(O)CO (some centres undefined) = 1.33
C=CCN1C(=O)[C@]2(O[C@H](CCn3cc([C@H](O)c4ccccc4)nn3)[C@@H]([Si](C)(C)c3ccc(OC)cc3)[C@@H]2C)c2cc(N3CCC3=O)ccc21 = 0.564
Cc1ccc(N2C(=O)c3ccccc3[C@@H](C(=O)NC3CC3)[C@@H]2c2ccc(CO)cc2)nc1 = -2.27
COCCOC(=O)N1C(=O)[C@@]2(c3cc(C#Cc4ccc(OC)cc4)ccc31)[C@H](c1ccccc1OCCO)N1[C@H](c3ccccc3)[C@H](c3ccccc3)OC(=O)[C@H]1[C@@H]2C(=O)NC[C@H](O)c1ccccc1 = 1.29
CC#CC(=O)Oc1ccccc1C=CC(=O)OCC = 0.82
O=C1C[C@@](C(=O)NCCN2CCOCC2)(c2ccc([N+](=O)[O-])cc2)[C@@H](c2ccc(CO)cc2I)N1CC12CC3CC(CC(C3)C1)C2 = 1.33

Provide reported composite z-score for each item, in the same order as listed.
1. Cc1ccc(S[C@]2(C(=O)NC3CC3)CC(=O)N(Cc3ccccc3)[C@@H]2c2ccc(CO)cc2I)cc1
2. C[C@H]1NC(=O)[C@@]23C(=O)N[C@@H](Cc4ccccc4)C2[C@H](C)[C@@]2(C)O[C@H]2C3/C=C/C/C=C\CNC(=O)[C@@H]2CCCN2C1=O (some centres undefined)

Output:
1: 0.0282; 2: 0.574

---

Assay: P. aeruginosa biofilm formation inhibitors, primary screen, PAO1 strain, BacTiter-Glo luminescence, LB-PBS (AID 1144)
Conditions: 12 h, higher = more signal
Provide the reported z-score of each item.
Numbers only.

Some solved cases for reference:
CCOC(=O)C[C@H]1[C@H](OC(=O)c2ccc(C(=O)c3ccccc3)cc2)[C@@H](NC(=O)c2ccc3ccccc3n2)c2cc(OCCCO)ccc2N1C(=O)c1ccccc1 = 0.0839
C=C[C@H](OC)[C@@H](OC(=O)Nc1ccc(OC)cc1)c1ccc(O)c(F)c1 = -0.689
COC(=O)[C@@]1(Cc2ccc(F)cc2)[C@H]2c3cc(C(=O)N(C)C)n(Cc4ccc(Cl)c(C(F)(F)F)c4)c3C[C@H]2CN1C(=O)c1ccccc1 = 0.44
CCC(CC)C(O)C1C=CC2C(=O)NC(=O)C2N1Nc1ccccn1 (stereo not given) = -0.515

Please state, for each entry, its recorded z-score.
1. C=CC(=C)[C@H]1Oc2ccccc2S(=O)(=O)N2CCC[C@@H]12
2. O=C(NCCN1CCOCC1)C1N=C(c2ccc(OCCCO)cc2)N(c2ccccc2)O1 (stereo not given)
3. C=CC[C@@]12N=C(c3ccc(OCCCO)cc3)O[C@@H]1c1ccccc1N(C)C2=O
4. CCS[C@H]1[C@@H](C(=O)O)[C@H](c2ccc(C)cc2)N(S(=O)(=O)c2ccc(C)cc2)[C@@H]1CC
5. C[C@H]1C2[C@H](Cc3ccccc3)NC(=O)[C@]23C(=O)N[C@H](Cc2ccccc2)C(=O)N2CCC[C@H]2C(=O)NC/C=C\C/C=C/C3[C@@H]2O[C@]12C (stereo not given in full)

Output:
1: 1.16; 2: 1.27; 3: -0.0229; 4: -0.54; 5: -1.44

Give measured z-score for every item shown.
1. CN1C(=O)C2C=CC(C(O)C3CC=CCC3)N(N(c3ccccc3)c3ccccc3)C2C1=O (stereo not given)
2. CC(C)C[C@@H]1NC(=O)[C@@H]2C[C@H](C(=O)O)[C@H](c3cccc(OCCO)c3)N2C1=O
3. COCCOC(=O)N1C(=O)[C@@]2(c3cc(C#CCC(C(=O)OC)C(=O)OC)ccc31)[C@H](c1ccccc1OCCO)N1[C@H](c3ccccc3)[C@H](c3ccccc3)OC(=O)[C@H]1[C@@H]2C(=O)NC[C@H](O)c1ccccc1
4. O=C1C[C@@](C(=O)NC2CC2)(c2ccc([N+](=O)[O-])cc2)[C@@H](c2ccc(CO)cc2I)N1C1CCCCC1
5. CCOC(=O)C[C@H]1[C@H](OC(=O)c2ccc(C(=O)c3ccccc3)cc2)[C@@H](NC(=O)c2ccccc2)c2cc(OCCCO)ccc2N1C(=O)c1ccc2ccccc2n1
6. COC(=O)[C@@]1(Cc2ccccc2)[C@H]2c3cc(C(=O)N4CCCC4)n(Cc4ccc(S(C)(=O)=O)cc4)c3C[C@H]2CN1C(=O)c1ccccc1

Output:
1: 0.472; 2: 0.133; 3: 0.166; 4: -0.691; 5: 0.0501; 6: 0.779

---

Test: compound binding in COS7 lysate, probe aLAP1, primary screen, cell lysate, small-molecule microarray (AID 1124);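 also: lysate comes from COS7 cells expressing LAP1 and is applied at 0.3 µg/mL; score merges spot fluorescence near 667 nm with signal-to-noise over triplicate slides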
Conditions: probe aLAP1, fluorescence, higher = more signal
Just so you know, the groups by composite z-score go like this: low (below 0.2), middle (0.2 to below 0.6), high (0.6 or more)

Input: Just checking, what class would you give COC(=O)[C@@]1(Cc2ccc(F)cc2)[C@H]2c3cc(C(=O)N4CCCC4)n(Cc4ccc(S(C)(=O)=O)cc4)c3C[C@H]2CN1C(=O)c1ccccc1 here?
Output: high

Input: Exam item: assign CO[C@H]1O[C@H](CO)[C@@H](OC(=O)Nc2ccc(C(F)(F)F)cc2)[C@H](OC(=O)Nc2ccc3c(c2)OCO3)[C@@H]1OC(=O)Nc1ccc2c(c1)OCO2 to the correct category.
Output: middle

Input: Any idea which band COCCCNC(=O)[C@@]1(C)c2ccccc2C(=O)N(C(C)C)[C@H]1c1ccc(CO)cc1 is in?
Output: low

Input: Which band does COC(=O)[C@@]1(CCC(=O)OC(C)(C)C)N=C(c2ccc(OCCCO)cc2)O[C@H]1c1ccccc1N=[N+]=[N-] fall in?
Output: middle

Input: Assign a bin to COc1cc2c(cc1OC)CN(C(=O)[C@H]1[C@@H]3C(=O)O[C@@H](c4ccccc4)[C@@H](c4ccccc4)N3[C@@H](c3ccc(O)cc3)[C@]13C(=O)Nc1ccc(C#CCCO)cc13)CC2
Output: low

Input: Hello team, could you let me know which band the following compound falls into: C=C(CCCC)/C(=C/C[C@@H](OC(C)=O)c1ccc(OCCO)cc1)c1cnc2ccccc2c1
Output: middle

Input: Record C=CCNC(=O)[C@H]1[C@@H]2C(=O)O[C@@H](c3ccccc3)[C@@H](c3ccccc3)N2[C@@H](c2ccccc2OCCO)[C@]12C(=O)Nc1ccc(C#CCC(C(=O)OC)C(=O)OC)cc12 — which class?
Output: high

Input: Hi, small favor: classify COc1ccc(C#Cc2ccc3c(c2)[C@]2(C(=O)N3)[C@H](C(=O)NC[C@H](O)c3ccccc3)[C@H]3C(=O)O[C@H](c4ccccc4)[C@H](c4ccccc4)N3[C@@H]2c2ccc(O)cc2)cc1 by its composite z-score when you get a moment.
Output: high

Input: Note: place this compound into its band. Item: O=C(c1ccccc1)N1C(=O)[C@@]2(Cc3ccccc31)N=C(c1ccc(OCCCO)cc1)O[C@H]2c1ccccc1
Output: high

Input: Could you place CC(C)(C)OC(=O)CC[C@]1(C(=O)N2CCOCC2)N=C(c2ccc(OCCCO)cc2)O[C@H]1c1ccccc1N=[N+]=[N-] in its proper category? Many thanks.
Output: high

Input: # bin label for C=C(C(=O)CC[C@@H](OC(=O)c1cccnc1)c1ccccc1OCCO)C(C)C
Output: high

Input: Which class is correct for the following compound? CCCCCCc1nc(-c2cc(C)c(OC)c(C)c2)cc2c1[Si](C(C)C)(C(C)C)OC2
Output: low

---

Target: NADPH oxidase 4 (Homo sapiens)
Experiment: NOX4-dependent H2O2 signal modulators, primary screen, NOX inhibitor project, cell-based, HEK293-NOX4, tetracycline-induced, Amplex Red fluorescence (AID 1160)
Settings: 45 min, higher = more signal, called active from +8 up or from −8 down
Can you tell me z-score for the items I'm about to list?
Answers are plain numbers.

Solved cases below.
CCOC(=O)C1=CC[C@@H](c2ccccc2)N(S(=O)(=O)c2ccc(C)cc2)[C@H]1c1ccccc1C = 0.226
C[N+](C)(C)CCCCCCNC(=O)[C@@H]1C[C@@H]2C(=O)N[C@@H](Cc3ccccc3)C(=O)N2[C@@H]1c1cccc(OCCO)c1 = 1.66
CC(=O)NCCCC[C@@H]1NC(=O)[C@H]2C[C@@H](C(=O)NCCCCCCNC(=O)CS)[C@@H](c3ccc(O)cc3)N2C1=O = -0.187

Moving on to the next molecule.
Input: Please give measured z-score of the following entry: COc1cc(COC(C)=O)ccc1OC(C)=O
Output: -0.433

---

Assay: PSAC antagonists in infected red cells, primary screen, cell-based, P. falciparum Indochina, OD700, 1 h (AID 1154)
Settings: P. falciparum Indochina infected RBC osmotic lysis, higher = more signal, called active from +8 up or from −8 down
Activity calls are given as the source filed them.
quantity measured: z-score

Some solved cases for reference:
COC(=O)[C@@]1(Cc2ccc(OC)cc2)[C@H]2c3cc(C(=O)N4CCCC4)n(Cc4ccc(O)c(OC)c4)c3C[C@H]2CN1C(=O)c1ccccc1 = 5.08 (inactive)
COC(=O)c1c(CC[C@@H](CO)NC(=O)NCCn2cc(C3(O)CCCC3)nn2)oc(C(C)=O)c1C(=O)OC = 2.06 (inactive)
CC(C)C[C@@H]1NC(=O)[C@@H]2C[C@H](C(=O)O)[C@H](c3cccc(OCCO)c3)N2C1=O = 3.95 (inactive)
C=CCNC(=O)[C@@H]1[C@H]2C(=O)O[C@H](c3ccccc3)[C@H](c3ccccc3)N2[C@H](c2ccc(O)cc2)[C@@]12C(=O)N(C(=O)OCCOC)c1ccc(C#CCNC(N)=O)cc12 = 0.691 (inactive)
CCCC[C@@H]1C[C@H]1[C@@H](NC(=O)C(C)(C)C)c1ccc(C(F)(F)F)cc1 = 5.74 (inactive)
C=CCC(OC(C)=O)[C@@H]1[C@@H](N(Cc2ccc(-c3ccccc3)cc2)C(=O)Cc2ccc(OC)cc2)c2cc(OCCCO)ccc2N1C(=O)Cc1ccc2ccccc2c1 (some centres not stated) = 0.747 (inactive)

Then there is this compound:
Input: Given CO[C@H]1O[C@H](CO)[C@@H](OC(=O)Nc2ccc(Oc3ccccc3)cc2)[C@H](OC(=O)Nc2ccc3c(c2)OCO3)[C@H]1OC(=O)Nc1ccc2c(c1)OCO2 , respond with its z-score.
Output: 7.24 (inactive)
